- system_under_test: Estrogen receptor (Homo sapiens)
- protocol_summary: qHTS assay to identify small molecule agonists of the estrogen receptor alpha (ER-alpha) signaling pathway using the BG1 cell line (AID 743079); also: nearly all actives have a fitted effect of over 20% in size
- test_parameters: BG1Luc4E2 cells, ERE-luciferase agonist, 22 h; series mostly up to 70.3 µM
Inconclusive results are not listed. Active and inactive are the calls of the source. Calls follow the shape of the dose curve; as a rule, active = well fitted activation curve with a large enough effect in the repeat runs; inconclusive = weak or mixed curves, or effect the other way; inactive = no such curve, though single readings can be large or run the other way.
Entry note: the call must match one of active, inactive

Ask: // return assay outcome for C[C@H](O)C(=O)Nc1c(I)c(C(=O)NC(CO)CO)c(I)c(C(=O)NC(CO)CO)c1I
Reply: inactive

---
Ask: Look up the recorded call for CCCCCCCCCCCl in this test.
Reply: inactive

Ask: Next compound up: CC1CCN(CCCC(=O)c2ccc(F)cc2)CC1
Reply: inactive

Ask: Query C=CCOCC(O)CS(=O)(=O)O (configuration not stated) next
Reply: inactive

Ask: Consider next the compound CCCCCCCCCCCCCCCCCC(=O)OCCCCCCCCCCCCCC(C)C in the same way.
Reply: active

Ask: Would you mind doing CC(=O)O[C@H](CC(=O)[O-])C[N+](C)(C)C as well?
Reply: inactive

Ask: # repeat for CC(=O)N[C@@H](CCC(N)=O)C(=O)O
Reply: inactive

Ask: What about this compound? C=C(C)[C@@H]1CCC2=CC(=O)C[C@@H](C)[C@]2(C)C1
Reply: inactive

###

- protocol_summary: A CellTox Green Cytotoxicity Assay to monitor cytotoxicity in HEK293 cells - 0 hour (AID 1224869); also: nearly all actives have a fitted effect of over 50% in size
- test_parameters: CellTox Green fluorescence; series mostly up to 76.8 µM
- Description: National Center for Advancing Translational Sciences [NCATS] NIH Chemical Genomics Center [NCGC] U.S. Environmental Protection Agency [EPA] National Institutes of Environmental Health Sciences [NIEHS] National Toxicology Program [NTP] Cell-based models are critical for drug discovery. […] Viable cells produce no appreciable increases in fluorescence. Therefore, the fluorescence signal produced by the binding interaction with dead cell DNA is proportional to cytotoxicity. […]
Activity calls are given as the source filed them. The call rests on the fitted dose curve; in most records, active means well fitted activation curve with a large enough effect in the repeat runs; inconclusive means weak or mixed curves; inactive means flat fitted curve, though single readings scatter.
endpoint_name: cytotoxicity

Worked set:
Ask: # input molecule: CCC(C(=O)NC(N)=O)c1ccccc1 (centres undefined) ; wanted: its cytotoxicity
Reply: inactive

Ask: Note, next up: O=C(O)c1cccc(C(=O)O)n1
Reply: inactive

Ask: Note, next up: CC1CCN(CCCC(=O)c2ccc(F)cc2)CC1
Reply: inactive

Ask: Further, for CCCC(C)C(=O)O (centres undefined) ?
Reply: inactive

Ask: Again, but for CC(=O)c1ccc(C)cc1
Reply: inactive

Would you be so kind as to report cytotoxicity for each listed record?
1. Cc1c(F)cc2c(=O)c(C(=O)O)cn3c2c1CCC3C (centres undefined)
2. C[C@H](O)C(=O)Nc1c(I)c(C(=O)NC(CO)CO)c(I)c(C(=O)NC(CO)CO)c1I
3. CCCCCN(CCCCC)C(=O)C(CCC(=O)O)NC(=O)c1ccc(Cl)c(Cl)c1 (centres undefined)
4. CCCCc1ccc2cccc(S(=O)(=O)O)c2c1

Reply:
1. inactive
2. inactive
3. inactive
4. inactive

Would you be so kind as to report cytotoxicity for each listed record?
1. COc1cccc(OC)c1
2. OCCCCCCO
3. CCO[Si](C)(OCC)OCC
4. Cn1cnc2c(=O)[nH]c(N)nc21
5. OCC(O)[C@@H](O)[C@H](O)[C@H](O)CO[C@H]1O[C@H](CO)[C@@H](O)[C@H](O)[C@H]1O (some centres undefined)

Reply:
1: inactive; 2: inactive; 3: inactive; 4: inactive; 5: inactive

Each of the following entries comes with a recorded value; kindly state cytotoxicity for each.
1. C=C(C)C(=O)NCCC[N+](C)(C)C
2. OCc1ccccn1
3. COC(C(=O)O)c1ccccc1 (centres undefined)
4. NC(=O)CCCCC1CCSS1 (centres undefined)

Reply:
["inactive", "inactive", "inactive", "inactive"]

###

- protocol_summary: qHTS assay to identify small molecule antagonists of the thyroid receptor (TR) signaling pathway (AID 743065); also: nearly all actives have a fitted effect of over 55% in size
- test_parameters: GH3.TRE-Luc, T3-stimulated luciferase inhibition, 23.5 h; series mostly up to 70.3 µM
Inconclusive results are not listed. Active and inactive are the calls of the source. The call rests on the fitted dose curve; in most records, active means well fitted inhibition curve with a large enough effect in the repeat runs; inconclusive means weak or mixed curves; inactive means no such curve, though single readings can be large or run the other way.
Pick one and only one: active, inactive

Previously resolved entries follow.
Ask: What call does the record list for CCC(=O)c1cccc(Cl)c1 ?
Reply: inactive

Ask: Queued: Nc1ccc2cc(S(=O)(=O)O)ccc2c1
Reply: inactive

More entries:
Ask: Which outcome did this test record for the compound CCN1CCN(c2cc3c(cc2F)c(=O)c(C(=O)O)cn3C2CC2)CC1 ?
Reply: inactive

Ask: Also need CC(C)COC(=O)C(C)C , thanks.
Reply: inactive

Ask: Follow-up entry: CC1=CCC2C(C1)C2(C)C (centres undefined)
Reply: inactive

Ask: Follow-up entry: COC[C@H](c1ccc(C(F)(F)F)cc1)N1CCN(C2(C)CCN(C(=O)c3c(C)ncnc3C)CC2)C[C@H]1C
Reply: inactive

Ask: Next up: CCCC(C)C(=O)O (centres undefined)
Reply: inactive

Ask: Okay, and Cc1ccc(Nc2ccc(O)c3c2C(=O)c2ccccc2C3=O)cc1 ?
Reply: inactive

Ask: Next record, please: COC(=O)CCCCCCCCC(=O)OC
Reply: inactive

Ask: Continue with NC(CS)C(=O)O (centres undefined)
Reply: inactive

Ask: CO[Si](CCCNCCC[Si](OC)(OC)OC)(OC)OC ?
Reply: inactive

Ask: Also need CCCCN(CCO)CCO , thanks.
Reply: inactive

Ask: Please answer likewise for COC(=O)C1=C(C)NC(C)=C(C(=O)OCC(C)=O)C1c1ccccc1[N+](=O)[O-] (centres undefined)
Reply: active

Ask: // query: NS(=O)(=O)c1cc(C2(O)NC(=O)c3ccccc32)ccc1Cl (centres undefined)
Reply: inactive

Ask: Also need CCCCCC[C@@H](CCC)C(=O)O , thanks.
Reply: inactive

Ask: Next compound up: COc1cc(O)cc(O)c1
Reply: inactive

Ask: Thanks! And Nc1nc2c(ncn2CCC(CO)CO)c(=O)[nH]1 ?
Reply: inactive

Ask: For NC(N)=NS(=O)(=O)c1ccc(N)cc1 then?
Reply: inactive

Ask: Field entry: CC(C)CCCCCCN
Reply: inactive

###

- protocol_summary: qHTS assay for identifying genotoxic compounds that show differential cytotoxicity against isogenic chicken DT40 cell lines with known DNA damage response pathways - Rev3 mutant cell line (AID 743014); also: nearly all actives have a fitted effect of over 55% in size
- test_parameters: chicken DT40 Rev3-/- viability, CellTiter-Glo, 40 h; series mostly up to 68.4 µM
Results filed as inconclusive are left out. Activity calls are given as the source filed them. Calls follow the shape of the dose curve; as a rule, active = well fitted cell-killing curve with a large enough effect in the repeat runs; inconclusive = weak or mixed curves, or effect the other way; inactive = no such curve, though single readings can be large or run the other way.
Pick one: yes (1) for active, no (0) for inactive

Solved entries:
Ask: Name the outcome recorded for NC(=O)CCCCC1CCSS1 (configuration not stated) in the assay.
Reply: no (0)

Ask: Would you mind doing CC(CCO)CCCC(C)(C)O (configuration not stated) as well?
Reply: yes (1)

Ask: Check c1ccc(SCCSc2ccccc2)cc1 too.
Reply: no (0)

***
Ask: Name the outcome recorded for CC(C)[N+](C)(C)CC(O)COc1cccc2ccccc12 (configuration not stated) in the assay.
Reply: no (0)

Ask: Also need NCC[C@H](O)C(=O)N[C@@H]1C[C@H](N)[C@@H](O[C@H]2O[C@H](CN)[C@@H](O)[C@H](O)[C@H]2O)[C@H](O)[C@H]1O[C@H]1O[C@H](CO)[C@@H](O)[C@H](N)[C@H]1O , thanks.
Reply: no (0)

Ask: Query CN(C)CCn1nnnc1SCC1=C(C(=O)O)N2C(=O)[C@@H](NC(=O)Cc3csc(N)n3)[C@H]2SC1 next
Reply: no (0)

Ask: Continue with NC(N)=NS(=O)(=O)c1ccc(N)cc1
Reply: no (0)

Ask: Try the compound COc1cc(C)cc(O)c1
Reply: no (0)

###

- system_under_test: Aromatase (Homo sapiens)
- protocol_summary: qHTS assay to identify aromatase inhibitors (AID 743083); also: nearly all actives have a fitted effect of over 55% in size
- test_parameters: MCF-7 aro ERE, testosterone-driven ERE luciferase, 24 h; series mostly up to 70.3 µM
Results filed as inconclusive are left out. Calls of active or inactive are those of the source. The call rests on the fitted dose curve; in most records, active means well fitted inhibition curve with a large enough effect in the repeat runs; inconclusive means weak or mixed curves; inactive means no such curve, though single readings can be large or run the other way.
Hi! Could you answer with just one of these? 1 (active), -1 (inactive)

These recorded examples may help you get a feel for the data.
Ask: How did this test come out for CCOC(=O)[C@H](CCc1ccccc1)N[C@@H](C)C(=O)N1CCC[C@H]1C(=O)O ?
Reply: -1

Ask: Now the same for Cc1ccccc1C(=O)O
Reply: -1

Ask: What do you have for Cn1ccc2cc3c(cc21)CCN3C(=O)Nc1cccnc1 ?
Reply: -1

Ask: Again, but for CC(C)(C)N(CCO)CCO
Reply: -1

Ask: Can you handle CC1(C)SC(C)(C)SC(C)(C)S1 next?
Reply: -1

Ask: Same again, this time with Cc1nccn1CC1CCc2c(c3ccccc3n2C)C1=O (stereo not drawn)
Reply: -1

Ask: Same question for CC(C)=CC(=O)O please.
Reply: -1

Ask: Would you kindly repeat that for CC(=O)NC(Cc1ccccc1)C(=O)O (stereo not drawn) ?
Reply: -1

Ask: Same thing, different compound: CCCCNc1ccccc1
Reply: -1

Ask: And CNc1ncnc2nc[nH]c12 ?
Reply: -1

Shift focus to the following entry.
Ask: Called result for CCN(CC)S(=O)(=O)c1ccc(C(=O)O)cc1
Reply: -1

From: PubChem BioAssay (Tox21)
